Tested on: c-Myc
assayNotes: c-Myc immunofluorescence assay
Format: cell-based, human
measurementContext: A549 cells, 24 hours treatment, anti-c-Myc immunofluorescence
endpointLabel: Myc Efficacy (−LogEC50)

In [3]: df
Out[3]:
                                    molecule             result
 0  C#CCCC1(CCN(CC)CCCNC(=O)c2ccc3c(c2)sc2nc(-c4ccc(C(=O)NC)cc4)cn23)N=N1       +++ (+++ ≥6)
 1  CCN(CC)CCCNC(=O)c1ccc2c(c1)sc1nc(-c3ccc(CN)cc3F)nn12  ++ (++ ≥5 and <6)
 2  CNC(=O)c1ccc(-c2cn3c(n2)sc2cc(C(=O)NCC4CC4(F)F)ccc23)cc1 (centres unmarked)    + (+ >3 and <5)
 3  O=C(NCCCN1CCC(F)CC1)c1ccc2c(c1)sc1nc(-c3ccc(C4(O)CCNCC4)cc3F)cn12       +++ (+++ ≥6)
 4  CNC(=O)c1ccc(-c2cn3c(n2)sc2cc(C(=O)N[C@@H](CO)c4ccccc4)ccc23)cc1    + (+ >3 and <5)
 5  CCN(CC)CCCNC(=O)c1ccc2c(c1)sc1nc(-c3cncc(C)c3)cn12    + (+ >3 and <5)
 6  CNC(=O)c1ccc(-c2cn3c(n2)sc2cc(C(=O)NCCC4(O)CCCC4)ccc23)cc1           − (− ≤3)
 7  CNC(=O)c1ccc(-c2cn3c(n2)sc2cc(C(=O)NCCCN4CCC(F)CC4)ccc23)c(F)c1       +++ (+++ ≥6)
 8  CC[C@@H](CO)NC(=O)c1ccc2c(c1)sc1nc(-c3ccc(C(=O)NC)cc3)cn12    + (+ >3 and <5)
 9  CNC(=O)c1ccc2c(c1)sc1nc(-c3ccc([C@@H]4C[C@H](O)CN4)cc3F)cn12       +++ (+++ ≥6)
10  CCN(CC)CCCNC(=O)c1ccc2c(c1)sc1nc(-c3cccc(C4COC4)c3)cn12    + (+ >3 and <5)
11  O=C(NCCCN1CCC(F)CC1)c1ccc2c(c1)sc1nc(-c3ccc(-c4ncc[nH]4)cc3F)cn12       +++ (+++ ≥6)
12  CNC(=O)c1ccc(-c2cn3c(n2)sc2cc(C(=O)NC[C@H]4CC[C@H](O)CC4)ccc23)cc1           − (− ≤3)
13  CNC(=O)c1ccc(-c2cn3c(n2)sc2cc(C(=O)NCCCN4CCCCC4)ccc23)c(F)c1  ++ (++ ≥5 and <6)
14  CNC(=O)c1ccc(-c2cn3c(n2)sc2cc(C(=O)NCCC4CCCN4C)ccc23)cc1 (centres unmarked)  ++ (++ ≥5 and <6)
15  CNC(=O)c1ccc(-c2cn3c(n2)sc2cc(C(=O)NC[C@H]4CCCN4)ccc23)cc1           − (− ≤3)
16  CNC(=O)c1ccc(-c2cn3c(n2)sc2cc(C(=O)NCCOC)ccc23)cc1    + (+ >3 and <5)
17  CCN(CC)CCCNC(=O)c1ccc2c(c1)sc1nc(-c3ccc(Cl)cc3)cn12  ++ (++ ≥5 and <6)
18  CCN(CC)CCCNC(=O)c1ccc2c(c1)sc1nc(-c3cccc(-c4ccccc4)c3)cn12    + (+ >3 and <5)
19  CCN1CCC[C@@H]1CNC(=O)c1ccc2c(c1)sc1nc(-c3cccc(OC)c3)cn12    + (+ >3 and <5)
20  CN[C@H]1C[C@H](NC(=O)c2ccc3c(c2)sc2nc(-c4cccc(C)c4)cn23)C1  ++ (++ ≥5 and <6)
21  O=C1CNC(c2ccc(-c3cn4c(n3)sc3cc(C(=O)NC5CCOCC5)ccc34)c(F)c2)C1 (centres unmarked)       +++ (+++ ≥6)
22  CNC(=O)c1ccc(-c2cn3c(n2)sc2cc(C(=O)NCCN4CCCCC4C)ccc23)cc1 (centres unmarked)    + (+ >3 and <5)
23  O=C(NCCCN1CCC(F)CC1)c1ccc2c(c1)sc1nc(-c3ccc(C4CCNO4)cc3F)cn12 (centres unmarked)       +++ (+++ ≥6)
24  CNC(=O)c1ccc(-c2cn3c(n2)sc2cc(C(=O)NCCCN4CCCC4)ccc23)c(F)c1  ++ (++ ≥5 and <6)
25  O=C(NCCCN1CCC(F)CC1)c1ccc2c(c1)sc1nc(-c3cc(F)c(C4CCCN4)cc3F)cn12 (centres unmarked)       +++ (+++ ≥6)
